- Test system: UCD52 (cells of a triple-negative basal-like breast cancer xenograft);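 further: PDX cells carrying CMV promoter-driven luciferase, viability read as total photon flux per second by IVIS imaging following D-luciferin, vehicle control 0.1% DMSO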
- experiment.notes: cell viability (% of vehicle); higher = less cytotoxic
- condition.parameters: 10 µM; 72 h
The label Yes is reserved for cell viability strictly under 100; No covers values equal to or above it.

compound="CC1CC(OC(=O)C(O)c2ccccc2)CC(C)(C)C1 (centres undefined) [Cyclandelate]" answer_label=Yes
compound="CCCc1nc2c(C)cc(-c3nc4ccccc4n3C)cc2n1Cc1ccc(-c2ccccc2C(=O)O)cc1 [Telmisattan]" answer_label=No
compound="CN(C)CCC=C1c2ccccc2CCc2ccccc21.Cl [Amitriptyline HCl]" answer_label=Yes
compound="O=c1[nH]c(=O)n(C2CC(O)C(CO)O2)cc1I (centres undefined) [Idoxuridine]" answer_label=No
compound="CCCC1O[C@@H]2C[C@H]3[C@@H]4CCC5=CC(=O)C=C[C@]5(C)[C@H]4[C@@H](O)C[C@]3(C)[C@]2(C(=O)CO)O1 (some centres undefined) [Budesonide]" answer_label=No
compound="Clc1ccc(COC(Cn2ccnc2)c2ccc(Cl)cc2Cl)cc1.O=[N+]([O-])O (centres undefined) [Econazole nitrate]" answer_label=Yes
compound="CC1C(=O)OC2CC34C5CC(C(C)(C)C)C36C(OC(=O)C6O)OC4(C(=O)O5)C21O (centres undefined) [Ginkgolide A]" answer_label=Yes

Origin of measurements: the supplement of paper PMC6992640
